The following molecules are shown together with reported viability, T/C values.
# Tested on: 616215-338-R-J1-PDC complex spheroid viability
# ASSAY: Anticancer human tumor 616215-338-R-J1-PDC patient-derived colon adenocarcinoma cell line growth inhibition [POLQ]
# TEST_SETTINGS: second compound 0.1 µM; first compound 0.01 µM; hits give low values

- MOLECULE: "Cn1ncnc1[C@H]1c2n[nH]c(=O)c3cc(F)cc(c23)N[C@@H]1c1ccc(F)cc1 + Cc1cccc(N(C)C(=O)C2C(O)CCN2c2nc(C)cc(C(F)(F)F)c2C#N)c1"
  viability, T/C [%]: 105
- MOLECULE: "CCc1c2c(nc3ccc(O)cc13)-c1cc3c(c(=O)n1C2)COC(=O)[C@]3(O)CC + Cc1cccc(N(C)C(=O)C2C(O)CCN2c2nc(C)cc(C(F)(F)F)c2C#N)c1"
  viability, T/C [%]: 90.5
- MOLECULE: "C=CCn1c(=O)c2cnc(Nc3ccc(N4CCN(C)CC4)cc3)nc2n1-c1cccc(C(C)(C)O)n1 + COC1C(OC(N)=O)C(O)C(Oc2ccc3c(O)c(NC(=O)c4ccc(O)c(CC=C(C)C)c4)c(=O)oc3c2C)OC1(C)C"
  viability, T/C [%]: 101
- MOLECULE: "COc1cccc(OCCCN)c1-c1cc(Nc2cnc(C#N)cn2)n[nH]1 + Cc1cccc(N(C)C(=O)C2C(O)CCN2c2nc(C)cc(C(F)(F)F)c2C#N)c1"
  viability, T/C [%]: 97.8
- MOLECULE: "CCc1c2c(nc3ccc(O)cc13)-c1cc3c(c(=O)n1C2)COC(=O)[C@]3(O)CC + Nc1ccc(C#CCN(C(=O)Cc2ncc(C(F)(F)F)cc2C(F)(F)F)c2ccc(F)cc2)nn1"
  viability, T/C [%]: 55.2

====

# Test system: 616215-338-R-J1-PDC complex spheroid viability
# ASSAY: Anticancer human tumor 616215-338-R-J1-PDC cell line growth inhibition [POLQ];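 also: spheroids exposed to compounds for one week before readout; percent viability relative to DMSO vehicle wells taken as 100%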
# TEST_SETTINGS: second compound 3.16 µM; first compound 1 µM; hits give low values
The following compounds are shown together with reported viability, T/C values.
QUANTITY_MEASURED: viability, T/C (%)

- COMPOUND: "CC1COCCN1c1cc(-c2ccnn2C)c2ccnc(-c3ccn[nH]3)c2n1 (stereo unspecified) + Cc1cccc(N(C)C(=O)C2C(O)CCN2c2nc(C)cc(C(F)(F)F)c2C#N)c1"
  UNIT_ANNOTATION: "%"
  NUMERIC_READOUT: 54
- COMPOUND: "CCCS(=O)(=O)Nc1ccc(F)c(C(=O)c2c[nH]c3ncc(-c4ccc(Cl)cc4)cc23)c1F + COC1C(OC(N)=O)C(O)C(Oc2ccc3c(O)c(NC(=O)c4ccc(O)c(CC=C(C)C)c4)c(=O)oc3c2C)OC1(C)C"
  UNIT_ANNOTATION: "%"
  NUMERIC_READOUT: 107
- COMPOUND: "CCCS(=O)(=O)Nc1ccc(F)c(C(=O)c2c[nH]c3ncc(-c4ccc(Cl)cc4)cc23)c1F + Cc1cccc(N(C)C(=O)C2C(O)CCN2c2nc(C)cc(C(F)(F)F)c2C#N)c1"
  UNIT_ANNOTATION: "%"
  NUMERIC_READOUT: 101
- COMPOUND: "CC1COCCN1c1cc(-c2ccnn2C)c2ccnc(-c3ccn[nH]3)c2n1 (stereo unspecified) + Nc1ccc(C#CCN(C(=O)Cc2ncc(C(F)(F)F)cc2C(F)(F)F)c2ccc(F)cc2)nn1"
  UNIT_ANNOTATION: "%"
  NUMERIC_READOUT: 24.8
- COMPOUND: "O=C(c1cc(Cc2n[nH]c(=O)c3ccccc23)ccc1F)N1CCN(C(=O)C2CC2)CC1 + Nc1ccc(C#CCN(C(=O)Cc2ncc(C(F)(F)F)cc2C(F)(F)F)c2ccc(F)cc2)nn1"
  UNIT_ANNOTATION: "%"
  NUMERIC_READOUT: 93.3
- COMPOUND: "COc1cc(C2c3cc4c(cc3C(OC3OC5COC(C)OC5C(O)C3O)C3COC(=O)C23)OCO4)cc(OC)c1O (stereo unspecified) + Cc1cccc(N(C)C(=O)C2C(O)CCN2c2nc(C)cc(C(F)(F)F)c2C#N)c1"
  UNIT_ANNOTATION: "%"
  NUMERIC_READOUT: 81.7
- COMPOUND: "Nc1ccn(C2OC(CO)C(O)C2(F)F)c(=O)n1 (stereo unspecified) + COC1C(OC(N)=O)C(O)C(Oc2ccc3c(O)c(NC(=O)c4ccc(O)c(CC=C(C)C)c4)c(=O)oc3c2C)OC1(C)C"
  UNIT_ANNOTATION: "%"
  NUMERIC_READOUT: 27.8
- COMPOUND: "CCc1cc2c(N3CCc4c(cc(Cn5ccnc5)cc4-c4cn(C)nc4C(F)(F)F)C3=O)ccnc2c(OC)n1 + COC1C(OC(N)=O)C(O)C(Oc2ccc3c(O)c(NC(=O)c4ccc(O)c(CC=C(C)C)c4)c(=O)oc3c2C)OC1(C)C"
  UNIT_ANNOTATION: "%"
  NUMERIC_READOUT: 98.2
- COMPOUND: "CCc1cc2c(N3CCc4c(cc(Cn5ccnc5)cc4-c4cn(C)nc4C(F)(F)F)C3=O)cc(C)nc2c(OC)n1 + Nc1ccc(C#CCN(C(=O)Cc2ncc(C(F)(F)F)cc2C(F)(F)F)c2ccc(F)cc2)nn1"
  UNIT_ANNOTATION: "%"
  NUMERIC_READOUT: 63.6
- COMPOUND: "COc1cccc(OCCCN)c1-c1cc(Nc2cnc(C#N)cn2)n[nH]1 + Cc1cccc(N(C)C(=O)C2C(O)CCN2c2nc(C)cc(C(F)(F)F)c2C#N)c1"
  UNIT_ANNOTATION: "%"
  NUMERIC_READOUT: 29.1
- COMPOUND: "CCc1cc2c(N3CCc4c(cc(Cn5ccnc5)cc4-c4cn(C)nc4C(F)(F)F)C3=O)ccnc2c(OC)n1 + Nc1ccc(C#CCN(C(=O)Cc2ncc(C(F)(F)F)cc2C(F)(F)F)c2ccc(F)cc2)nn1"
  UNIT_ANNOTATION: "%"
  NUMERIC_READOUT: 70.8
